- System: Psdm. aerug. F 41
- measurement notes: MIC, test tube series dilution test, Psdm. aerug. F 41
- Assay type: cell-based, Pseudomonas aeruginosa
- condition set: Psdm. aerug. F 41; 24 hours, 37°C
outcome measure: MIC (U/ml)
Numbers only, in U/ml.

Sample records with MIC:
compound	study target	MIC (U/ml)
CC1(C)S[C@@H]2[C@H](NC(=O)[C@H](NC(=O)c3ccc([N+](=O)[O-])cc3)c3ccccc3)C(=O)N2[C@H]1C(=O)O	Psdm. aerug. F 41	64
CC1(C)S[C@@H]2[C@H](NC(=O)[C@H](NC(=O)c3ccc(NC=O)cc3)c3ccccc3)C(=O)N2[C@H]1C(=O)O	Psdm. aerug. F 41	32
CC1(C)S[C@@H]2[C@H](NC(=O)[C@H](NC(=O)c3ccc(NC(=O)CCN=[N+]=[N-])cc3)c3ccccc3)C(=O)N2[C@H]1C(=O)O	Psdm. aerug. F 41	32

Problem: So what's the measured MIC for this one? CC1(C)S[C@@H]2[C@H](NC(=O)[C@H](NC(=O)c3ccc(NC(=O)c4ccccc4)cc3)c3ccccc3)C(=O)N2[C@H]1C(=O)O
Result: 16

---

Give measured MIC for each item. Keep answers brief.
- System: Psdm. aerug. F 41
- measurement notes: MIC, test tube series dilution test, Psdm. aerug. F 41
- Type: cell-based, Pseudomonas aeruginosa
- condition set: Psdm. aerug. F 41; 24 hours, 37°C

molecule	outcome measure	reported value
CC1(C)S[C@@H]2[C@H](NC(=O)[C@H](NC(=O)c3ccc(NC(=O)C4CC4)cc3)c3ccccc3)C(=O)N2[C@H]1C(=O)O	MIC	32 U/ml

Go through the items and report each one's MIC.
1. CC1(C)S[C@@H]2[C@H](NC(=O)[C@H](NC(=O)c3ccc(NC(=O)CC4C=CCC4)cc3)c3ccccc3)C(=O)N2[C@H]1C(=O)[O-].[Na+] (stereo partly shown)
2. CC1(C)S[C@@H]2[C@H](NC(=O)[C@H](NC(=O)c3ccc(NC(=O)c4ccc(F)cc4)cc3)c3ccccc3)C(=O)N2[C@H]1C(=O)O
3. COc1ccc(C(=O)Nc2ccc(C(=O)N[C@@H](C(=O)N[C@@H]3C(=O)N4[C@@H]3SC(C)(C)[C@@H]4C(=O)O)c3ccccc3)cc2)cc1
4. CC1(C)S[C@@H]2[C@H](NC(=O)[C@H](NC(=O)c3ccc(NC(=O)C4CCC4)cc3)c3ccccc3)C(=O)N2[C@H]1C(=O)O
5. CC1(C)S[C@@H]2[C@H](NC(=O)[C@H](NC(=O)CNC(=O)c3ccc(NC(=O)C4CCCC4)cc3)c3ccccc3)C(=O)N2[C@H]1C(=O)O
6. CC1(C)S[C@@H]2[C@H](NC(=O)[C@H](NC(=O)c3ccc(NC(=O)C=Cc4ccccc4)cc3)c3ccccc3)C(=O)N2[C@H]1C(=O)O

Result:
64 U/ml
32 U/ml
16 U/ml
64 U/ml
64 U/ml
4 U/ml

---

Please provide measured MIC for the entries that follow.
- Test system: Proteus morg. 932
- measurement notes: MIC, test tube series dilution test, Proteus morg. 932
- Format: cell-based
- condition set: 24 hours, 37°C

molecule	study target	MIC
CC1(C)S[C@@H]2[C@H](NC(=O)[C@H](NC(=O)c3ccc(NC(=O)C4CC=CCC4)cc3)c3ccccc3)C(=O)N2[C@H]1C(=O)O (single isomer, unassigned) [Example 12]	Proteus morg. 932	> 256 U/ml
CC1(C)S[C@@H]2[C@H](NC(=O)[C@H](NC(=O)c3cc(NC=O)cc(NC=O)c3)c3ccccc3)C(=O)N2[C@H]1C(=O)O [Example 71]	Proteus morg. 932	> 256 U/ml

Problem: Lab note: need MIC for CC(N=[N+]=[N-])C(=O)Nc1ccc(C(=O)N[C@@H](C(=O)N[C@@H]2C(=O)N3[C@@H]2SC(C)(C)[C@@H]3C(=O)O)c2ccccc2)cc1 (stereo partly drawn) [Example 37] on Proteus morg. 932, anyone have it?
Result: ~ 128 U/ml

// provenance: patent US4001218A
